# System: Notch
# EXPERIMENT_NOTES: Release and translocation of Notch intracellular domain into the nucleus, HEK/AENotch cells (NICD immunostaining, ImageXpress)
# Type: cell-based, Human
# STATED_CONDITIONS: 3 μM Lactacystin, 4-6 h incubation, nucleus/cytosol NICD fluorescence ratio
# Method: The level of activity of the compounds on release and translocation of Notch intracellular domain into the cell nucleus was tested using the following method: Compounds were diluted in 100% DMSO and stored at 20° C. prior to use. […] Image acquisition of cytosolic/membrane and nuclear fluorescence as well as subsequent analysis of the nucleus and cytosolic fluorescence ratio was carried out using ImageXpress. […]
VALUE_TYPE: IC50

>>> print(df.to_string())
                                   compound  reported_value
0  COc1nc(Nc2ccc3c(n2)O[C@H](c2ccc(F)cn2)CN(C)C3C)ccc1-c1cnn(C)c1 (single isomer, unassigned) [Example 51]         > 25 µM
1  COc1nc(Nc2ccc3c(n2)OC(CC(F)(F)F)CN(C)C3)ccc1-c1cnn(C)c1 (single isomer, unassigned; (-)) [Example 5]         > 25 µM
2  COc1nc(Nc2ccc3c(n2)OC(C2CC2)CN(C)C3C)ccc1-c1cnn(C)c1 (single isomer, unassigned) [Example 20]        > 7.9 µM
3  COc1nc(Nc2ccc3c(n2)OC(CC(F)(F)F)CN(C)C3C)ccc1-c1cnn(C)c1 (single isomer, unassigned) [Example 35]         > 25 µM
4  COc1nc(Nc2ccc3c(n2)OC(CCC(F)(F)F)CN(C)C3)ccc1-c1cnn(C)c1 (single isomer, unassigned; (-)) [Example 58]         > 25 µM
5  COc1nc(Nc2ccc3c(n2)OC(c2ncc(C)s2)CN(C)C3)ccc1-n1cnc(C)c1 (single isomer, unassigned; (+)) [Example 66]         > 25 µM

Q: Consider the compound COc1nc(Nc2ccc3c(n2)OC(c2nc(C)cs2)C(C)N(C)C3)ccc1-c1cnn(C)c1 (single isomer, unassigned) [Example 29] and give its measured IC50.
Result: 5 µM

Q: Another compound: COc1nc(Nc2ccc3c(n2)O[C@H](c2ccc(F)cn2)CN(C)C3C)ccc1-c1cnn(C)c1 (single isomer, unassigned) [Example 50]
Result: 2.31 µM

###

# IC50 listing for each entry below
# Test system: Aβ42
# EXPERIMENT_NOTES: Aβ42 release from HEK cells stably expressing APPswe (MSD electrochemiluminescence)
# Format: cell-based, Human
# STATED_CONDITIONS: HEK cells expressing APPswe; 4-6 h incubation with test compound; Aβ42 secreted to cell medium
# Method: The level of activity of the compounds on Aβ formation was tested using the following method: Compounds were diluted in 100% DMSO and stored at 20° C. prior to use. […] After incubation with test compound the amount of Aβ peptides, including Aβ42, Aβ40, Aβ39, Aβ38 and Aβ37, as well as total Aβ levels, secreted to cell medium was analyzed using the electrochemiluminescence assay technology from Meso Scale Discovery (MSD), in combination with specific antibodies raised against the different Aβ peptides. […]
Give your result in µM as a bare value.

The examples below pair each entry with its known result.
                                   compound  reported_value
0  COc1nc(Nc2ccc3c(n2)OC(C2CC(F)(F)C2)CN(C)C3)ccc1-c1cnn(C)c1 (single isomer, unassigned) [Example 38]           0.015
1  COc1nc(Nc2ccc3c(n2)OC(C2CC2)CN(C)C3C)ccc1-c1cnn(C)c1 (single isomer, unassigned) [Example 18]           0.037
2  COc1nc(Nc2ccc3c(n2)OC(c2nc(C)cs2)C(C)N(C)C3)ccc1-n1cnc(C)c1 (single isomer, unassigned; (-)) [Example 59]           0.007

Q: Reported IC50, compound COc1nc(Nc2ccc3c(n2)OC(c2nc(C)cs2)C(C)N(C)C3)ccc1-c1cnn(C)c1 (single isomer, unassigned) [Example 29] : ____
Result: 0.068

Q: Check COc1nc(Nc2ccc3c(n2)OC(c2nc(C)cs2)CN(C)C3)ccc1-c1cnn(C)c1 (single isomer, unassigned; (+)) [Example 10] too.
Result: 0.226

Q: Try this compound next: COc1nc(Nc2ccc3c(n2)OC(C2CC(F)(F)C2)CN(C)C3)ccc1-c1cnn(C)c1 (single isomer, unassigned) [Example 37]
Result: 0.004
